assayedTarget: Mouse inducible nitric oxide synthase (miNOS) (Mus musculus)
Construct: prepared from an extract of LPS-treated RAW 264.7 cells and partially purified by DEAE-Sepharose chromatography; endogenous in cells; host or cells: LPS-treated RAW 264.7 cells (mouse macrophage line)
Sequence (P29477 whole entry): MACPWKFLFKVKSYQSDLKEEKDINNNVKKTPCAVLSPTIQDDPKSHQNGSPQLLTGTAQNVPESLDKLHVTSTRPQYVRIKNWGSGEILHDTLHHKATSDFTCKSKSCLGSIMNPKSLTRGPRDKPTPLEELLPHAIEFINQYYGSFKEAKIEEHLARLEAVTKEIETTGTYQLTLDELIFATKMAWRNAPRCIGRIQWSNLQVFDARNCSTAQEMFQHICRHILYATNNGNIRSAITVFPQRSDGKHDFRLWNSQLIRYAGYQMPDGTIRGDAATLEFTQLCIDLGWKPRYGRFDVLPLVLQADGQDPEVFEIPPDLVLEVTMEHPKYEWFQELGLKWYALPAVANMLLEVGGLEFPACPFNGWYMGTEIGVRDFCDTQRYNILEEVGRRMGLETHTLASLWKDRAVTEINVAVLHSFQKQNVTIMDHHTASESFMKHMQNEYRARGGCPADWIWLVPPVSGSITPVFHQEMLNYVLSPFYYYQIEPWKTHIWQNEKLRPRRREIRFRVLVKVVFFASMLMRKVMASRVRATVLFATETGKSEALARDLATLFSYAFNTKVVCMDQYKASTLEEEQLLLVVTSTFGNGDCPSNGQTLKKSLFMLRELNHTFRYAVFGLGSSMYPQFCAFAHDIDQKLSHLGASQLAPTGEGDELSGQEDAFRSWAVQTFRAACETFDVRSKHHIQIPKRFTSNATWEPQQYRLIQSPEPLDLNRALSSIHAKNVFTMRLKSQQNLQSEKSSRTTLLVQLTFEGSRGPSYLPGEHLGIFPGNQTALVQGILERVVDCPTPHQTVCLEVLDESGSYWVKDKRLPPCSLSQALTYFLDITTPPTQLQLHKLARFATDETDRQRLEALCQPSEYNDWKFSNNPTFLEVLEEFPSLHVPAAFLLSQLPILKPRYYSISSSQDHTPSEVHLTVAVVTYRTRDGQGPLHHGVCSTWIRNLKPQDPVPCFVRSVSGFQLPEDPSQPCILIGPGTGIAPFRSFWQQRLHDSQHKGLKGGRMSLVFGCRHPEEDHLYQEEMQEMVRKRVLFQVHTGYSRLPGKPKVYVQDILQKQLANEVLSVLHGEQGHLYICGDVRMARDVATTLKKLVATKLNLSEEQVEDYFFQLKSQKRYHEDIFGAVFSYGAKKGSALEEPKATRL
methodDescription: biochemical
measurementParameters: 10 μM compound; printed as % only (inhibition not stated)
measuredParameter: iNOS, % @ 10 μM (% @ 10 μM)
Give just the number in % @ 10 μM; leave the unit off.

Some solved cases for reference:
compound="Cl.N=C1NC[C@H]2CCCC[C@H]12 (relative stereo) [Example 173]" assayedtarget="Mouse inducible nitric oxide synthase (miNOS) (Mus musculus)" measuredparameter="iNOS, % @ 10 μM" resultnumber=42
compound="N=C1NCCO1 [Example 19, 2-Iminooxazolidine]" assayedtarget="Mouse inducible nitric oxide synthase (miNOS) (Mus musculus)" measuredparameter="iNOS, % @ 10 μM" resultnumber=42
compound="N=C1NCCN1 [Example 15, 2-Iminoimidazolidine]" assayedtarget="Mouse inducible nitric oxide synthase (miNOS) (Mus musculus)" measuredparameter="iNOS, % @ 10 μM" resultnumber=8

Read the next record carefully.
stdin: Name the recorded iNOS, % @ 10 μM of the item CN1CCCNC1=N [Example 23, 1-Methyl-2-iminotetrahydropyrimidine] in your answer.
stdout: 41

====

assayedTarget: Rat brain constitutive nitric oxide synthase (rnNOS) (Rattus norvegicus, UniProt P29476)
Construct: prepared from an extract of rat cerebellum and partially purified by DEAE-Sepharose chromatography; from tissue; host or cells: rat cerebellum
Sequence (P29476 whole entry): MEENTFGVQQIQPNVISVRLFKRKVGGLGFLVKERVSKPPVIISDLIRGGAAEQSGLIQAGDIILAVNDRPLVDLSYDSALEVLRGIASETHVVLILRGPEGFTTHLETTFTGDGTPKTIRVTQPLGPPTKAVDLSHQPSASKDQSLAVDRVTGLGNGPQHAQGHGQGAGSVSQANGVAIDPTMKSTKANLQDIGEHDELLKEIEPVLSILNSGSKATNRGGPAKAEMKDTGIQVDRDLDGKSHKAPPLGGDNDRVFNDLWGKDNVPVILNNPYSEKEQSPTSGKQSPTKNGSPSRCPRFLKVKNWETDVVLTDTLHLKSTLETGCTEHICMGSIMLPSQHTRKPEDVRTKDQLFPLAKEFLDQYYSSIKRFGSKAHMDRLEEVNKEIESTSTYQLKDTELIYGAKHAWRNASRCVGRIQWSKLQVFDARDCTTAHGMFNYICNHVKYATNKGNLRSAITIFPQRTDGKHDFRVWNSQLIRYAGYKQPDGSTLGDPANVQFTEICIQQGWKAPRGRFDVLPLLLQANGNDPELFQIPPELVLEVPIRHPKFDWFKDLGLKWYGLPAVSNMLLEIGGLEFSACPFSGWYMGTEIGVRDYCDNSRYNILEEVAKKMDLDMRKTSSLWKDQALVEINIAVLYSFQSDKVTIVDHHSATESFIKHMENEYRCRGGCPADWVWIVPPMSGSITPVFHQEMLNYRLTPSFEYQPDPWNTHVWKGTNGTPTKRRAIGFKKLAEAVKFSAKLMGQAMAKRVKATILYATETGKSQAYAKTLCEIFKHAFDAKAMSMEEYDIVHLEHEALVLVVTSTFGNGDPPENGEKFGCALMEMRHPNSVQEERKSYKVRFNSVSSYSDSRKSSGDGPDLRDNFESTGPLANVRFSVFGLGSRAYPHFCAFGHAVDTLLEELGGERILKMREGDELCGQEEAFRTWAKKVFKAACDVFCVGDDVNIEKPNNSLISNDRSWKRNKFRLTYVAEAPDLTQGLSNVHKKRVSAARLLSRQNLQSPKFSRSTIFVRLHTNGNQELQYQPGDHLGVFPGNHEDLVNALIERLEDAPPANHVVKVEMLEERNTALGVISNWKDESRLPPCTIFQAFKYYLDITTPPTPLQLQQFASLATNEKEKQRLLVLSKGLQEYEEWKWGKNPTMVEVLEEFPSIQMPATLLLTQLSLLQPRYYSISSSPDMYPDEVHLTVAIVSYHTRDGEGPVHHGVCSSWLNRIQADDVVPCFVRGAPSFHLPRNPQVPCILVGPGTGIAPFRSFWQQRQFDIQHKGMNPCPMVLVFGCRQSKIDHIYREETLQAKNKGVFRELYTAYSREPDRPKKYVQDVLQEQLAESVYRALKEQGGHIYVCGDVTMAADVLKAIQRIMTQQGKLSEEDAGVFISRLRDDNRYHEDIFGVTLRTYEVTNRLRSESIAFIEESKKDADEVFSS
methodDescription: Citrulline assay for nitric oxide synthase (cNOS)
Type: biochemical
pIC50: −log10 of the molar value. Counter-ions that a name gives are not always drawn.
Rule: pIC50 under 5 gives not satisfied, otherwise satisfied.

molecule="N=C1NCCCC1O (centres unmarked) [Example 11, 2-Imino-3-hydroxypiperidine acetate]" answerlabel=satisfied
molecule="CCC1NC(=N)CC1C (centres unmarked) [Example 217, monohydrochloride]" answerlabel=satisfied
molecule="NC1=NCCCO1 [Example 18, hydrochloride]" answerlabel=satisfied

stdin: Could you tell me if the measured pIC50 of CC1CN=C(N)C1 (centres unmarked) [Example 182, monohydrochloride] reaches 5 or more?
stdout: not satisfied

stdin: Could you tell me if the measured pIC50 of C=CCC1CCCCC(=N)N1.Cl (centres unmarked) [Example 108, monohydrochloride] reaches 5 or more?
stdout: not satisfied

stdin: Could you tell me if the measured pIC50 of C=CCC1CCCCNC1=N (centres unmarked) [Example 107, monohydrochloride] reaches 5 or more?
stdout: not satisfied

====

# ED50 listing for each entry below
System: LPS-induced increase in plasma nitrites
methodDescription: In vivo assay: endotoxin (LPS)-induced plasma nitrites in rat
measurementParameters: po; Low Endotoxin in Rat Model; administered p.o.
Give just the number in mg/kg; leave the unit off.

Some solved cases for reference:
compound="CCCCC1CCCCC(=N)N1.Cl (stereo not shown)" resultnumber=3.7
compound="Cl.N=C1CCCCC(C2CCCCC2)N1 (stereo not shown)" resultnumber=3.8
compound="C=CCC1CCCCC(=N)N1.Cl (stereo not shown)" resultnumber=3.7

stdin: Name the recorded ED50 of the item CCCC1CCCCC(=N)N1.Cl (stereo not shown) in your answer.
stdout: 3.4
